Molecular target: T1, mouse PRLR on HEK293 cells (mouse, UniProt Q08501 20-608)
T1 construct: whole, on cells; also called mPRLR; HEK293/mPRLR
T1 sequence (looked up): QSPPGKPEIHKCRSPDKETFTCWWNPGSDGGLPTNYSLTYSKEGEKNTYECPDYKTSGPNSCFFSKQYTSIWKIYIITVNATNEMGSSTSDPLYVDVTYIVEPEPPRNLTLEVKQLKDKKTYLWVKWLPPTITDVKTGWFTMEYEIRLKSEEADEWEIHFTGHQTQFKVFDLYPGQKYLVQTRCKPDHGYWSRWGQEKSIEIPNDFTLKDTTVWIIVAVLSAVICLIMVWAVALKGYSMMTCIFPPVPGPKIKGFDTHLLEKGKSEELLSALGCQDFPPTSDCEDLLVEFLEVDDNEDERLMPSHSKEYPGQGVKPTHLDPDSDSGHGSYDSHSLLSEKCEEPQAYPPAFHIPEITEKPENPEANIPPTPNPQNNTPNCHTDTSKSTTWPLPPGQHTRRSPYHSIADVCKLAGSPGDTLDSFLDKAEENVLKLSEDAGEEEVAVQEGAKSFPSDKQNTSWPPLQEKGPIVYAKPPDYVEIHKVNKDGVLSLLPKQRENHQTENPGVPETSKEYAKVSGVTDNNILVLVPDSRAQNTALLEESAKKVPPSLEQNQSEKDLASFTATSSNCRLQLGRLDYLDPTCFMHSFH
Test: FACS, HEK293/mPRLR cells; further: test concentration or dose not given here
REPORTED_METRIC: FACS Cell Binding (Fold Above Background) (fold above background)

| BINDER | ENDPOINT_RESULT |
| --- | --- |
| H1H6976N (antibody, human IgG1, V domains shown, also called H2M6976N) VH: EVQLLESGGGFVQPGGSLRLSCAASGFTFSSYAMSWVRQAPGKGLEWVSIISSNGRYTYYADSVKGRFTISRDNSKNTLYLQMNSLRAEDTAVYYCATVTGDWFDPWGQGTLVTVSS VL: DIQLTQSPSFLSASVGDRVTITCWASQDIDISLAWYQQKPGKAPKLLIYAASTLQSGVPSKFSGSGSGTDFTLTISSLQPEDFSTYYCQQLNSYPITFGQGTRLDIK | 1 |
| H1H6785P (antibody, human IgG1, V domains shown, human IgG1 Fc (H1H)) VH: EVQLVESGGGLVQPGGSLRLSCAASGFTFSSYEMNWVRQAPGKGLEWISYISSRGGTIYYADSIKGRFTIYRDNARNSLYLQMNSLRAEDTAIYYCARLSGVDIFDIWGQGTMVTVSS VL: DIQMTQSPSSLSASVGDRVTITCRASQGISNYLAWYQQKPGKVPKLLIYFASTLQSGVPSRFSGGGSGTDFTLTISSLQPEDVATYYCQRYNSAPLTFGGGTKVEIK | 2 |
| H1H6975N (antibody, human IgG1, V domains shown, also called H2M6975N) VH: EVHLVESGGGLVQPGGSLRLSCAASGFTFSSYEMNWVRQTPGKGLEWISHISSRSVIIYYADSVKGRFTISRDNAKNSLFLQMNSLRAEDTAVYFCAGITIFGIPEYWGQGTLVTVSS VL: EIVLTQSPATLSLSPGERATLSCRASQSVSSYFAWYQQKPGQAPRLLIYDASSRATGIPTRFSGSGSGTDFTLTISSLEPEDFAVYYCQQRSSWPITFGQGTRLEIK | 1 |
| H1H6966N (antibody, human IgG1, V domains shown, also called H2M6966N) VH: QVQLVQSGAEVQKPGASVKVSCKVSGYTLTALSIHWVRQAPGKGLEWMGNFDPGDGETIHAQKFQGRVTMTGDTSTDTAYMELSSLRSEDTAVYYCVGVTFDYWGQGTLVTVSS VL: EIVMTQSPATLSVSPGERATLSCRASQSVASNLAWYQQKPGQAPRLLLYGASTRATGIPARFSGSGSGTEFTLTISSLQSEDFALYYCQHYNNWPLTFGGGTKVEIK | 1 |
| H1H6774P (antibody, human IgG1, V domains shown, human IgG1 Fc (H1H)) VH: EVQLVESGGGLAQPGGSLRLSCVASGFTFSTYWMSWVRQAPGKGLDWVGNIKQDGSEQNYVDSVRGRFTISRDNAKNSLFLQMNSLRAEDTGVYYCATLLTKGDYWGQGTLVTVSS VL: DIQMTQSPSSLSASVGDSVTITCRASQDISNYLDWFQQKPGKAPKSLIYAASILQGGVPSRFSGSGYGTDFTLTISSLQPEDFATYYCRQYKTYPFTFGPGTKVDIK | 1 |
